The reported numbers originate from patent US9776149B2.

# measurement-protocol: Particle size of drug suspensions before and after focused acoustic processing (Malvern Mastersizer 2000 / Zetasizer Nano ZS-90)
# Type: physicochemical
# protocol-conditions: 15 mg/mL suspension, 12 mL, 5 min
For each of the compounds below, state its Particle size (d90).
One number for each entry, in microns.

Example results:
INSERT INTO results (compound, parameter, unit, readout_number) VALUES
  ('C(=C\c1ccccc1)/CN1CCN(C(c2ccccc2)c2ccccc2)CC1', 'Particle size (d90)', 'microns', 41.73),
  ('COC1=CC(=O)C[C@@H](C)[C@]12Oc1c(Cl)c(OC)cc(OC)c1C2=O', 'Particle size (d90)', 'microns', 31.45),
  ('CC(C)Cc1ccc(C(C)C(=O)O)cc1 (stereo not shown)', 'Particle size (d90)', 'microns', 33.35);

query: Fill in the blank: the reported Particle size (d90) of `COc1ccc2c(c1)c(CC(=O)O)c(C)n2C(=O)c1ccc(Cl)cc1` is ____.
result: 38.32

====

# measurement-protocol: Particle size of drug suspensions before and after focused acoustic processing (Malvern Mastersizer 2000 / Zetasizer Nano ZS-90)
# Assay type: physicochemical
# protocol-conditions: 15 mg/mL suspension, 18 mL, 10 min
parameter: Particle size (d90) (microns)
One number for each entry, in microns.

Below: 3 compounds and their reported Particle size (d90).
INSERT INTO measurements (compound, readout_number) VALUES
  ('COC1=CC(=O)C[C@@H](C)[C@]12Oc1c(Cl)c(OC)cc(OC)c1C2=O', 31.01),
  ('C(=C\c1ccccc1)/CN1CCN(C(c2ccccc2)c2ccccc2)CC1', 43.00),
  ('COc1ccc2c(c1)c(CC(=O)O)c(C)n2C(=O)c1ccc(Cl)cc1', 28.73);

Pending compound:
query: Fill in the blank: the reported Particle size (d90) of CC(C)Cc1ccc(C(C)C(=O)O)cc1 (stereo not shown) is ____.
result: 39.53

====

# measurement-protocol: Particle size of drug suspensions before and after focused acoustic processing (Malvern Mastersizer 2000 / Zetasizer Nano ZS-90)
# Type: physicochemical
# protocol-conditions: 15 mg/mL suspension, 2 mL, 5 min
parameter: Particle size (d90)

INSERT INTO results (compound, result) VALUES
  ('COc1ccc2c(c1)c(CC(=O)O)c(C)n2C(=O)c1ccc(Cl)cc1', '20.88 microns'),
  ('C(=C\c1ccccc1)/CN1CCN(C(c2ccccc2)c2ccccc2)CC1', '37.29 microns'),
  ('COC1=CC(=O)C[C@@H](C)[C@]12Oc1c(Cl)c(OC)cc(OC)c1C2=O', '16.86 microns');

query: GET /values?readout=Particle size (d90)&item= CC(C)Cc1ccc(C(C)C(=O)O)cc1 (stereo not shown)
result: 12.55 microns

====

Give measured Average particle size for each item. Keep answers brief.
# measurement-protocol: Particle size of drug suspensions before and after focused acoustic processing (Malvern Mastersizer 2000 / Zetasizer Nano ZS-90)
# Assay type: physicochemical
# protocol-conditions: nano-suspension, 5 mg/mL, 2 mL batch, 30 min
Numbers only, in nm.

For orientation, consider the following solved cases.
INSERT INTO results (molecule, unit, readout_number) VALUES
  ('COC1=CC(=O)C[C@@H](C)[C@]12Oc1c(Cl)c(OC)cc(OC)c1C2=O', 'nm', 90),
  ('CC(C)Cc1ccc(C(C)C(=O)O)cc1 (stereo not shown)', 'nm', 97),
  ('COc1ccc2c(c1)c(CC(=O)O)c(C)n2C(=O)c1ccc(Cl)cc1', 'nm', 20);

Kindly consider the entry below.
query: I would be grateful if you could share the reported Average particle size for `C(=C\c1ccccc1)/CN1CCN(C(c2ccccc2)c2ccccc2)CC1` .
result: 56.85

====

# measurement-protocol: Particle size of drug suspensions before and after focused acoustic processing (Malvern Mastersizer 2000 / Zetasizer Nano ZS-90)
# Type: physicochemical
# protocol-conditions: nano-suspension, 5 mg/mL, 2 mL batch, Initial
For each entry below, report its Average particle size value.
Answers are plain numbers, in microns.

Consider the reported Average particle size for these compounds:
INSERT INTO assay_data (compound, parameter, readout_number) VALUES
  ('C(=C\c1ccccc1)/CN1CCN(C(c2ccccc2)c2ccccc2)CC1', 'Average particle size', 149.17),
  ('COc1ccc2c(c1)c(CC(=O)O)c(C)n2C(=O)c1ccc(Cl)cc1', 'Average particle size', 239.88),
  ('CC(C)Cc1ccc(C(C)C(=O)O)cc1 (stereo not shown)', 'Average particle size', 203.67);

Next, consider the following compound.
query: Can you share its Average particle size? I mean this compound: `COC1=CC(=O)C[C@@H](C)[C@]12Oc1c(Cl)c(OC)cc(OC)c1C2=O`
result: 44.45

====

Consider the following molecules; for each one, report its Particle size (d90).
# measurement-protocol: Particle size of drug suspensions before and after focused acoustic processing (Malvern Mastersizer 2000 / Zetasizer Nano ZS-90)
# Format: physicochemical
# protocol-conditions: 15 mg/mL suspension, Initial (before focused acoustic processing)
One number for each entry, in microns.

INSERT INTO results (molecule, parameter, unit, readout_number) VALUES
  ('COc1ccc2c(c1)c(CC(=O)O)c(C)n2C(=O)c1ccc(Cl)cc1', 'Particle size (d90)', 'microns', 239.88),
  ('COC1=CC(=O)C[C@@H](C)[C@]12Oc1c(Cl)c(OC)cc(OC)c1C2=O', 'Particle size (d90)', 'microns', 44.45);

Provide Particle size (d90) for all items below, preserving their order.
1. C(=C\c1ccccc1)/CN1CCN(C(c2ccccc2)c2ccccc2)CC1
2. CC(C)Cc1ccc(C(C)C(=O)O)cc1 (stereo not shown)

result:
[149.17, 203.67]

====

Give measured Average particle size for each item. Keep answers brief.
# measurement-protocol: Particle size of drug suspensions before and after focused acoustic processing (Malvern Mastersizer 2000 / Zetasizer Nano ZS-90)
# Type: physicochemical
# protocol-conditions: nano-suspension, 5 mg/mL, 2 mL batch, 15 min
# Experimental: Particle size distributions of mixtures and/or nanoformulations described herein may be measured using dynamic laser light scattering, also called Photon correlation spectroscopy (e.g., using Malvern Zetasizer-S, Zetasizer Nano ZS-90 or Mastersizer 2000 instruments; Malvern Instruments Inc.; Southborough Mass.). […] The average size of particles and the PDI of mixtures and nanoformulations discussed herein are calculated according to the International Standard on dynamic light scattering, ISO 13321. […]
One number for each entry, in nm.

INSERT INTO results (compound, parameter, unit, readout_number) VALUES
  ('COc1ccc2c(c1)c(CC(=O)O)c(C)n2C(=O)c1ccc(Cl)cc1 [Indomethacin]', 'Average particle size', 'nm', 127.4),
  ('C(=C\c1ccccc1)/CN1CCN(C(c2ccccc2)c2ccccc2)CC1 [Cinnarizine]', 'Average particle size', 'nm', 280),
  ('COC1=CC(=O)C[C@@H](C)[C@]12Oc1c(Cl)c(OC)cc(OC)c1C2=O [Griseofulvin]', 'Average particle size', 'nm', 100);

query: What value of Average particle size has been reported for the following compound? CC(C)Cc1ccc(C(C)C(=O)O)cc1 (stereo not shown) [Ibuprofen]
result: 110
